target-entity: Galectin-3 (Homo sapiens, UniProt P17931)
Sequence (P17931 whole entry): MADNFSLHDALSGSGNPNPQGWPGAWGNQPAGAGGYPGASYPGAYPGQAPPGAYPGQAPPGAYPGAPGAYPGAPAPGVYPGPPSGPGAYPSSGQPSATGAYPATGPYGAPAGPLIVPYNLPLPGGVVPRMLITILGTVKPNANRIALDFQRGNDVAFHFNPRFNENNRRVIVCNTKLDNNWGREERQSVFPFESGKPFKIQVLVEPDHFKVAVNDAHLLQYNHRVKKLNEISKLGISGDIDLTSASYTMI
protocol-summary: Binding affinity to CM3 chip-immobilized full-length human galectin-3 assessed as dissociation constant by SPR analysis
pKd: −log10 of the molar value.

{"compound": "CO[C@@H]1[C@@H](n2cc(-c3csc(O)n3)nn2)[C@@H](O)[C@@H](CO)O[C@@H]1Sc1ccc(Cl)c(Cl)c1", "pKd": 4.69}

====

protocol-summary: Cmax in C57BL/6 mouse at 30 mg/kg, po measured for 24 hrs by HPLC analysis
Format: ADME, organism-based
experimental-conditions: in vivo

{"compound": "CO[C@@H]1[C@@H](n2cc(-c3csc(O)n3)nn2)[C@@H](O)[C@@H](CO)O[C@@H]1Sc1ccc(Cl)c(Cl)c1", "Cmax (ng/mL)": 19500}

====

target-entity: Galectin-1 (Homo sapiens, UniProt P09382)
Sequence (P09382 whole entry): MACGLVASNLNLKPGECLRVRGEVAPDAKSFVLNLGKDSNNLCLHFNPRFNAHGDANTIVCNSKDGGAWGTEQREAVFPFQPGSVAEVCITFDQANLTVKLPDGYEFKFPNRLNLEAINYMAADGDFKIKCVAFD
protocol-summary: Binding affinity to human galectin-1 assessed as dissociation constant by competitive fluorescence polarization assay
pKd: −log10 of the molar value.

{"compound": "OC[C@H]1O[C@@H](S[C@@H]2O[C@H](CO)[C@H](O)[C@H](n3cc(-c4csc(O)n4)nn3)[C@H]2O)[C@H](O)[C@@H](n2cc(-c3cc(F)c(F)c(F)c3)nn2)[C@H]1O", "target-entity": "Galectin-1 (Homo sapiens, UniProt P09382)", "pKd": 8.40}

====

protocol-summary: Efflux ratio of apparent permeability across apical to basal side over basal to apical side in human Caco-2 cells at 10 uM incubated for 90 mins by LC-MS/MS analysis
Each entry below carries its reported efflux ratio at 1.5 h, 10 µM.

{"compound": "CO[C@@H]1[C@@H](n2cc(-c3nccs3)nn2)[C@@H](O)[C@@H](CO)O[C@@H]1Sc1cc(Cl)c(F)c(Cl)c1", "value-modifier": "=", "efflux ratio at 1.5 h, 10 µM": 1.4}
{"compound": "OC[C@H]1O[C@H](Sc2ccc(Cl)c(Cl)c2)[C@H](O)[C@@H](n2cc(-c3csc(O)n3)nn2)[C@H]1O", "value-modifier": ">", "efflux ratio at 1.5 h, 10 µM": 23}
{"compound": "CNc1nc(-c2cn([C@@H]3[C@@H](O)[C@@H](Sc4cc(Cl)c(F)c(Cl)c4)O[C@H](CO)[C@@H]3O)nn2)cs1", "value-modifier": ">", "efflux ratio at 1.5 h, 10 µM": 192}
{"compound": "CN(C)c1nc(-c2cn([C@@H]3[C@@H](O)[C@@H](Sc4cc(Cl)c(F)c(Cl)c4)O[C@H](CO)[C@@H]3O)nn2)cs1", "value-modifier": "=", "efflux ratio at 1.5 h, 10 µM": 87}
{"compound": "CO[C@@H]1[C@@H](n2cc(-c3csc(N)n3)nn2)[C@@H](O)[C@@H](CO)O[C@@H]1Sc1ccc(Cl)c(Cl)c1", "value-modifier": "=", "efflux ratio at 1.5 h, 10 µM": 10}
{"compound": "COc1nc(-c2cn([C@@H]3[C@@H](O)[C@@H](Sc4cc(Cl)c(F)c(Cl)c4)O[C@H](CO)[C@@H]3O)nn2)cs1", "value-modifier": "=", "efflux ratio at 1.5 h, 10 µM": 5}
{"compound": "Nc1csc(-c2cn([C@@H]3[C@@H](O)[C@@H](Sc4cc(Cl)c(F)c(Cl)c4)O[C@H](CO)[C@@H]3O)nn2)n1", "value-modifier": "=", "efflux ratio at 1.5 h, 10 µM": 14}
{"compound": "CO[C@@H]1[C@@H](n2cc(-c3csc(O)n3)nn2)[C@@H](O)[C@@H](CO)O[C@@H]1Sc1cc(Cl)c(F)c(Cl)c1", "value-modifier": "=", "efflux ratio at 1.5 h, 10 µM": 63}
{"compound": "OC[C@H]1O[C@H](Sc2cc(Cl)c(F)c(Cl)c2)[C@H](O)[C@@H](n2cc(-c3nccs3)nn2)[C@H]1O", "value-modifier": "=", "efflux ratio at 1.5 h, 10 µM": 2.8}
{"compound": "OC[C@H]1O[C@H](Sc2cc(Cl)c(F)c(Cl)c2)[C@H](O)[C@@H](n2cc(-c3csc(O)n3)nn2)[C@H]1O", "value-modifier": "=", "efflux ratio at 1.5 h, 10 µM": 117}
